B1: LINE1-full (parent)
chain: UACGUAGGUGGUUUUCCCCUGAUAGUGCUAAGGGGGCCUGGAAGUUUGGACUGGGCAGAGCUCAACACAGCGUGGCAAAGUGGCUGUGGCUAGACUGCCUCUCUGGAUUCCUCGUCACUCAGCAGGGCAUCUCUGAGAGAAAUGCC

variants of: B1; test: self-cleavage, relative activity (ratio to wild type); higher = more cleavage; in vitro, sequencing; the parent is a self-cleaving ribozyme
Measured self-cleavage, listed per entry.
Keep it simple and answer with nothing but the number.

sequence="UACGUAGGUGGUUUUCCCCUGAUAGUGCUAAGGGGGCCUGGAAGUUUGGACUGGGCAGAGCUCAACACAGCGUGGCAAAGUGGCUGUGGCUAGACUGCCUCUCUGGGUUCCUCGUCACUCAGCAGGGCAUCUCUGAGAGGAAUGCC [A107G A140G]" experimental_value=1.87
sequence="UACGUAGGUGGUUUUCCCCUGACAGUGCUAAGGGGGCCUGGAAGCUUGGACUGGGCAGAGCUCAACACAGCGUGGCAAAGUGGCUGUGGCUAGACUGCCUCUCUGGAUUCCUCGUCACUCAGCAGGGCAUCUCUGAGAGAAAUGCC [U23C U45C]" experimental_value=1.7
sequence="UACGUAGGUGGUUUUCCCCUGAUAGAGCUAAGGGGGCCUGGAAGUUUGGACUGGGCAGAGCUCAACACAGCGUGGCAAAGUGGCUGUGGCUAGACGGCCUCUCUGGAUUCCUCGUCACUCAGCAGGGCAUCUCUGAGAGAAAUGCC [U26A U96G]" experimental_value=0.03
sequence="UACGUAGGUGGUUUCCCCCUGAUAGUGCUAAGGGGGCCUGGAAGUUUGGACUGGGCAGAGCUCAACACAGCGUGGCAGAGUGGCUGUGGCUAGACUGCCUCUCUGGAUUCCUCGUCACUCAGCAGGGCAUCUCUGAGAGAAAUGCC [U15C A78G]" experimental_value=1.34

The reported value for UACGUAGGUGGUUUUCCCCUGAUAGUGCUAAGGGGGCCUGGAAGUUUGGACUGGGCAGAGCUCAACACAGCGUGGCAAAGUGGCUGUGGCUAGACUGCCUCUCUGGAUCCCUCGUCACACAGCAGGGCAUCUCUGAGAGAAAUGCC [U109C U119A] in terms of self-cleavage is 0.7
